Where do these numbers come from? They come from ChEMBL document CHEMBL1687837.

Tested on: Escherichia coli
MEASUREMENT NOTES: Ratio of Kcat to Km for Escherichia coli beta-lactamase Toho-1 […] mutant assessed as compound hydrolysis by spectrophotometry
ASSAY ENDPOINT: kcat/Km (×10⁵ /s/M)
Give your result in ×10⁵ /s/M as a bare value.

Recorded results for 2 compounds are shown here.
{"SAMPLE SMILES": "CO/N=C(\\C(=O)N[C@@H]1C(=O)N2C(C(=O)O)=C(CSc3cnns3)CS[C@H]12)c1csc(N)n1", "RESULT UNIT": "×10⁵ /s/M", "kcat/Km": 9.4}
{"SAMPLE SMILES": "CO/N=C(\\C(=O)N[C@@H]1C(=O)N2C(C(=O)O)=C(COC(C)=O)CS[C@H]12)c1csc(N)n1", "RESULT UNIT": "×10⁵ /s/M", "kcat/Km": 4.1}

# evaluate next
Given item `C[C@H]1[C@H](NC(=O)/C(=N\OC(C)(C)C(=O)O)c2csc(N)n2)C(=O)N1S(=O)(=O)O` , the value recorded as its kcat/Km is 2.9

* * *

Tested on: Escherichia coli
MEASUREMENT NOTES: Ratio of Kcat to Km for Escherichia coli beta-lactamase Toho-1 D240S mutant assessed as compound hydrolysis by spectrophotometry
Below, each entry is listed with its recorded kcat/Km.

Use these answered entries as a reference point.
{"SAMPLE SMILES": "CC(=O)OCC1=C(C(=O)O)N2C(=O)[C@@H](NC(=O)Cc3cccs3)[C@H]2SC1", "TESTED ON": "Escherichia coli", "kcat/Km": "3.3 ×10⁶ /s/M"}
{"SAMPLE SMILES": "O=C(Cc1cccs1)N[C@@H]1C(=O)N2C(C(=O)[O-])=C(C[n+]3ccccc3)CS[C@H]12", "TESTED ON": "Escherichia coli", "kcat/Km": "7.6 ×10⁵ /s/M"}
{"SAMPLE SMILES": "CO/N=C(\\C(=O)N[C@@H]1C(=O)N2C(C(=O)O)=C(COC(C)=O)CS[C@H]12)c1csc(N)n1", "TESTED ON": "Escherichia coli", "kcat/Km": "1.2 ×10⁶ /s/M"}
{"SAMPLE SMILES": "C[C@H]1[C@H](NC(=O)/C(=N\\OC(C)(C)C(=O)O)c2csc(N)n2)C(=O)N1S(=O)(=O)O", "TESTED ON": "Escherichia coli", "kcat/Km": "1.3 ×10⁵ /s/M"}
{"SAMPLE SMILES": "CO/N=C(\\C(=O)N[C@@H]1C(=O)N2C(C(=O)O)=C(CSc3cnns3)CS[C@H]12)c1csc(N)n1", "TESTED ON": "Escherichia coli", "kcat/Km": "2 ×10⁶ /s/M"}

Turning now to a further compound:
Record for `CC1(C)S[C@@H]2[C@H](NC(=O)[C@H](N)c3ccccc3)C(=O)N2[C@H]1C(=O)O` under target or system Escherichia coli: kcat/Km reported as 1.3 ×10⁶ /s/M

* * *

Tested on: Escherichia coli
MEASUREMENT NOTES: Ratio of Kcat to Km for Escherichia coli beta-lactamase Toho-1 D240A mutant assessed as compound hydrolysis by spectrophotometry
ASSAY ENDPOINT: kcat/Km

// solved cases for kcat/Km follow
{"COMPOUND": "CC(=O)OCC1=C(C(=O)O)N2C(=O)[C@@H](NC(=O)Cc3cccs3)[C@H]2SC1 [CEPHALOTHIN]", "OBSERVED RESULT": "3.3 ×10⁶ /s/M"}
{"COMPOUND": "C[C@H]1[C@H](NC(=O)/C(=N\\OC(C)(C)C(=O)O)c2csc(N)n2)C(=O)N1S(=O)(=O)O [AZTREONAM]", "OBSERVED RESULT": "1.5 ×10⁵ /s/M"}

response.value for O=C(Cc1cccs1)N[C@@H]1C(=O)N2C(C(=O)[O-])=C(C[n+]3ccccc3)CS[C@H]12 [CEPHALORIDINE] (field: kcat/Km) = 7.1 ×10⁵ /s/M

Given item CC1(C)S[C@@H]2[C@H](NC(=O)[C@H](N)c3ccccc3)C(=O)N2[C@H]1C(=O)O [AMPICILLIN] , the value recorded as its kcat/Km is 1.2 ×10⁶ /s/M

For this compound ( CO/N=C(\C(=O)N[C@@H]1C(=O)N2C(C(=O)O)=C(COC(C)=O)CS[C@H]12)c1csc(N)n1 [CEFOTAXIME] ), measured kcat/Km is 1.3 ×10⁶ /s/M

kcat/Km in this record for CO/N=C(\C(=O)N[C@@H]1C(=O)N2C(C(=O)O)=C(CSc3cnns3)CS[C@H]12)c1csc(N)n1 [CEFUZONAM] : 2.1 ×10⁶ /s/M

* * *

System: Escherichia coli
MEASUREMENT NOTES: Ratio of Kcat to Km for Escherichia coli beta-lactamase Toho-1 N104A mutant assessed as compound hydrolysis by spectrophotometry
kcat/Km reference
A number alone suffices; assume ×10⁵ /s/M.

Log: Escherichia coli, compound `CC1(C)S[C@@H]2[C@H](NC(=O)[C@H](N)c3ccccc3)C(=O)N2[C@H]1C(=O)O` , kcat/Km = 7.2

Item `O=C(Cc1cccs1)N[C@@H]1C(=O)N2C(C(=O)[O-])=C(C[n+]3ccccc3)CS[C@H]12` was tested on Escherichia coli; the reported kcat/Km is 2.2

// compound `CO/N=C(\C(=O)N[C@@H]1C(=O)N2C(C(=O)O)=C(CSc3cnns3)CS[C@H]12)c1csc(N)n1` , assay Escherichia coli, kcat/Km value: 2.8

# lookup: `CO/N=C(\C(=O)N[C@@H]1C(=O)N2C(C(=O)O)=C(COC(C)=O)CS[C@H]12)c1csc(N)n1` on Escherichia coli, kcat/Km = 1.2

* * *

System: Escherichia coli
MEASUREMENT NOTES: Ratio of Kcat to Km for Escherichia coli beta-lactamase Toho-1 N104D mutant assessed as compound hydrolysis by spectrophotometry
The entries below are paired with their reported kcat/Km.
Field format: number, assumed ×10⁵ /s/M, no unit text.

These recorded examples may help you get a feel for the data.
{"COMPOUND": "CO/N=C(\\C(=O)N[C@@H]1C(=O)N2C(C(=O)O)=C(CSc3cnns3)CS[C@H]12)c1csc(N)n1 [CEFUZONAM]", "ASSAY ENDPOINT": "kcat/Km", "OBSERVED RESULT": 5.7}
{"COMPOUND": "O=C(Cc1cccs1)N[C@@H]1C(=O)N2C(C(=O)[O-])=C(C[n+]3ccccc3)CS[C@H]12 [CEPHALORIDINE]", "ASSAY ENDPOINT": "kcat/Km", "OBSERVED RESULT": 3}

// next entry
Entry CO/N=C(\C(=O)N[C@@H]1C(=O)N2C(C(=O)O)=C(COC(C)=O)CS[C@H]12)c1csc(N)n1 [CEFOTAXIME] ; kcat/Km = 2.4

* * *

System: Escherichia coli
MEASUREMENT NOTES: Ratio of Kcat to Km for Escherichia coli beta-lactamase Toho-1 G232A mutant assessed as compound hydrolysis by spectrophotometry
Each entry below carries its recorded kcat/Km.
# unit: ×10⁶ /s/M | format: bare number

Worked examples, 4 molecules total:
{"SAMPLE SMILES": "CO/N=C(\\C(=O)N[C@@H]1C(=O)N2C(C(=O)O)=C(CSc3cnns3)CS[C@H]12)c1csc(N)n1", "OBSERVED RESULT": 3.3}
{"SAMPLE SMILES": "CC(=O)OCC1=C(C(=O)O)N2C(=O)[C@@H](NC(=O)Cc3cccs3)[C@H]2SC1", "OBSERVED RESULT": 4.1}
{"SAMPLE SMILES": "CO/N=C(\\C(=O)N[C@@H]1C(=O)N2C(C(=O)O)=C(COC(C)=O)CS[C@H]12)c1csc(N)n1", "OBSERVED RESULT": 1.7}
{"SAMPLE SMILES": "O=C(Cc1cccs1)N[C@@H]1C(=O)N2C(C(=O)[O-])=C(C[n+]3ccccc3)CS[C@H]12", "OBSERVED RESULT": 1.5}

Now consider the entry below.
Item `CC1(C)S[C@@H]2[C@H](NC(=O)[C@H](N)c3ccccc3)C(=O)N2[C@H]1C(=O)O` was tested on Escherichia coli; the reported kcat/Km is 1.1

* * *

System: Escherichia coli
MEASUREMENT NOTES: Activity of Escherichia coli beta-lactamase Toho-1 C69A mutant assessed as compound hydrolysis by spectrophotometry
Values of Km strictly less than 200 µM map to Yes, and values of at least 200 µM map to No.

Consider the following illustrative entries.
{"SAMPLE SMILES": "CO/N=C(\\C(=O)N[C@@H]1C(=O)N2C(C(=O)O)=C(CSc3cnns3)CS[C@H]12)c1csc(N)n1", "ASSIGNED LABEL": "No"}
{"SAMPLE SMILES": "O=C(Cc1cccs1)N[C@@H]1C(=O)N2C(C(=O)[O-])=C(C[n+]3ccccc3)CS[C@H]12", "ASSIGNED LABEL": "No"}
{"SAMPLE SMILES": "C[C@H]1[C@H](NC(=O)/C(=N\\OC(C)(C)C(=O)O)c2csc(N)n2)C(=O)N1S(=O)(=O)O", "ASSIGNED LABEL": "Yes"}
{"SAMPLE SMILES": "CO/N=C(\\C(=O)N[C@@H]1C(=O)N2C(C(=O)O)=C(COC(C)=O)CS[C@H]12)c1csc(N)n1", "ASSIGNED LABEL": "No"}

Next:
IN: Does `CC1(C)S[C@@H]2[C@H](NC(=O)[C@H](N)c3ccccc3)C(=O)N2[C@H]1C(=O)O` have Km strictly under 200 µM?
OUT: Yes
